Each entry below carries its reported Ki.
# experimental_target: PTP1B321 (Homo sapiens, UniProt P18031)
# measurement_description: Triterpene inhibition of PTP1B321 (Table 2)
# Type: biochemical
measured_property: Ki

- C[C@H]1CC[C@@]2(OC1)O[C@H]1C[C@H]3[C@@H]4CC=C5C[C@@H](O)CC[C@]5(C)[C@H]4CC[C@]3(C)[C@H]1[C@@H]2C: 36 µM
- CC/C=C/C(C)(O)OCC1(C)C(=O)CCC2(C)C1CCC1(C)C2CCC2C3C(C)C(C)CCC3(C)CCC21C (stereo not drawn): 18 µM
- CC1(C)CC[C@]2(C(=O)O)CC[C@]3(C)C(=CCC4[C@@]5(C)C[C@@H](O)[C@H](O)C(C)(C)[C@@H]5CC[C@]43C)[C@@H]2C1 (stereo partly drawn): 10 µM
- C[C@H]1[C@H](C)CC[C@]2(C)CC[C@]3(C)C(=CC[C@@H]4[C@@]5(C)CC[C@H](O)C(C)(C)[C@@H]5CC[C@]43C)[C@H]12: 6 µM
- C[C@H]1C(=O)CC[C@H]2[C@]1(C)CC[C@]13C[C@@]14CC[C@@]1(C)CCC(C)(C)C[C@]15C[C@]54CC[C@@]23C: 4 µM
- CC1(C)CC[C@]2(C(=O)O)CC[C@]3(C)C(=CC[C@@H]4[C@@]5(C)CC[C@H](O)[C@@](C)(CO)[C@@H]5CC[C@]43C)[C@@H]2C1: 3.6 µM

###

# experimental_target: UniProt:P18031
# measurement_description: Triterpene inhibition of PTP1B321 (Table 2)
# Type: biochemical
measured_property: Ki

• C[C@H]1[C@H](C)CC[C@]2(C(=O)O)CC[C@]3(C)C(=CC[C@@H]4[C@@]5(C)C[C@@H](O)[C@H](O)C(C)(C)[C@@H]5CC[C@]43C)[C@H]12 = 3 µM
• CC1(C)CC[C@]2(C)CC=C3C(C)(CC[C@@H]4[C@@]5(C)CC[C@H](O)C(C)(C)[C@@H]5CC[C@@]34C)[C@@H]2C1 (stereo partly drawn) = 8 µM
• CC1(C)CCC[C@](C)([C@H]2CC[C@]3(C)[C@@H]2[C@H](O)C[C@@H]2[C@@]4(C)CC[C@H](O)C(C)(C)[C@@H]4[C@H](O)C[C@]23C)O1 = 14 µM
• CC1=C(O)C(=O)C=C2C1=CC=C1[C@@]2(C)CC[C@@]2(C)[C@@H]3C[C@](C)(C(=O)O)CC[C@]3(C)CC[C@]12C = 10 µM
• CC1(C)CC[C@]2(C)CC[C@]3(C)C(=CC[C@@H]4[C@@]5(C)CC[C@@H](O)[C@](C)(C(=O)O)[C@@H]5CC[C@]43C)[C@@H]2C1 = 6 µM
• COC[C@]12CC[C@@H](C)[C@H](C)[C@H]1[C@@]1(O)C=C[C@@H]3[C@@]4(C)CCC(=O)C(C)(C)[C@@H]4CC[C@@]3(C)[C@]1(C)CC2 = 15 µM

###

Each entry below carries its reported Ki.
# experimental_target: PTP1B405 (Homo sapiens, UniProt P18031)
# measurement_description: Triterpene inhibition of PTP1B405 (Table 2)
# Type: biochemical
measured_property: Ki (µM)

- CC1(C)CC[C@]2(C(=O)O)CC[C@]3(C)C(=CCC4[C@@]5(C)C[C@@H](O)[C@H](O)C(C)(C)[C@@H]5CC[C@]43C)[C@@H]2C1 (stereo partly drawn): 5.7
- CC1(C)CC[C@]2(C(=O)O)CC[C@]3(C)C(=CC[C@@H]4[C@@]5(C)CC[C@H](O)[C@@](C)(CO)[C@@H]5CC[C@]43C)[C@@H]2C1: 2
- C=C(C)[C@@H]1CC[C@]2(C)CC[C@]3(C)[C@H](CC[C@@H]4[C@@]5(C)CC[C@H](O)C(C)(C)[C@@H]5CC[C@]43C)[C@@H]12: 1.5
- CC1(C)[C@@H](OC(=O)CCC(=O)O)CC[C@]2(C)[C@H]3C(=O)C=C4[C@@H]5C[C@@](C)(C(=O)O)CC[C@]5(C)CC[C@@]4(C)[C@]3(C)CC[C@@H]12: 5
- CC1(C)CC[C@]2(C)CC[C@]3(C)C(=CC[C@@H]4[C@@]5(C)CC[C@@H](O)[C@](C)(C(=O)O)[C@@H]5CC[C@]43C)[C@@H]2C1: 4
- CC1(C)CC[C@]2(C)CC=C3C(C)(CC[C@@H]4[C@@]5(C)CC[C@H](O)C(C)(C)[C@@H]5CC[C@@]34C)[C@@H]2C1 (stereo partly drawn): 5
- CC1(C)CC[C@]2(C(=O)O)CC[C@]3(C)C(=CC[C@@H]4[C@@]5(C)C[C@@H](O)[C@H](O)[C@@](C)(CO)[C@@H]5CC[C@]43C)[C@@H]2C1: 7
- CC1(C)CC[C@]2(C)CC[C@]3(C)[C@H](CC[C@@H]4[C@@]5(C)CCCC(C)(C)[C@@H]5CC[C@]43C)[C@@H]2C1: 9
- CC1=C(O)C(=O)C=C2C1=CC=C1[C@@]2(C)CC[C@@]2(C)[C@@H]3C[C@](C)(C(=O)O)CC[C@]3(C)CC[C@]12C: 10
- C[C@H]1[C@H](C)CC[C@]2(C)CC[C@]3(C)C(=CC[C@@H]4[C@@]5(C)CC[C@H](O)C(C)(C)[C@@H]5CC[C@]43C)[C@H]12: 4
- CC1CCC23CCC4(C)C5(C)CCC6C(C)(C)C(=O)CCC6(C)C5C=CC4(OC2)C3C1C (stereo not drawn): 11
- COC(=O)[C@]1(C)CC[C@]2(C)CC[C@]3(C)C4=CC=C5C(=CC(=O)C(O)=C5C)[C@]4(C)CC[C@@]3(C)[C@@H]2C1: 8
